# key: entry, value: CCK secretion-promoting activity Score
System: Mouse intestinal CCK-producing cell line STC-1
Assay: Confirmation test of CCK secretion-stimulating activity (CCK in supernatant, enzyme immunoassay)
Assay type: cell-based
Conditions: Table 2B; 100 μM test material, 60 minutes, STC-1; (sample minus vehicle) divided by value of 70 mM KCl control
Please respond with just the number, no unit label.

- Compound: "CCCCCCCCCC"
  Recorded number: "−0.224"
- Compound: "CCCCCCCCCCCCC=O"
  Recorded number: 0.049
- Compound: "CCCCCCCCCCCCC(=O)O"
  Recorded number: "−0.234"
- Compound: "CCCCCCCCCCCC(=O)O"
  Recorded number: "−0.225"
- Compound: "CC/C=C\\CCC=O [Comparative Example 11, cis-4-heptenal]"
  Recorded number: "−0.001"

// CCK secretion-promoting activity Score lookup, compound = CC/C=C\CCCCC=O [compound 12, cis-6-nonenal] , result: −0.648

// CCK secretion-promoting activity Score lookup, compound = CC/C=C\CCCCCC=O [compound 13, cis-7-decenal] , result: 0.274

// CCK secretion-promoting activity Score lookup, compound = CCCCCCCC=O , result: −0.004

// CCK secretion-promoting activity Score lookup, compound = CCCCCCCCCCCCCO , result: −0.225

// CCK secretion-promoting activity Score lookup, compound = CCCCCCCCC=O , result: −0.003

// CCK secretion-promoting activity Score lookup, compound = CCCCCCCCO , result: −0.134

// CCK secretion-promoting activity Score lookup, compound = C=CCO , result: 0.557
